The compounds listed here are annotated with their Ratio IC50.
- Species: Mus musculus
- test.summary: Binding affinity to mouse Monoclonal antibody DIG 64.2B.5 by ELISA relative to digoxin

Solved cases (3 shown):
C[C@]12CC[C@H](O)C[C@H]1CC[C@@H]1[C@@H]2CC[C@]2(C)[C@@H](C3=CC(=O)OC3)[C@@H](O)C[C@]12O ... > 540000
C[C@@H]1CC[C@@]2(OC1)O[C@H]1[C@@H](O)[C@H]3[C@@H]4CC[C@H]5C[C@@H](O[C@@H]6O[C@H](CO)[C@H](O[C@@H]7O[C@H](CO)C(O)[C@H](O[C@@H]8OC[C@@H](O)[C@H](O)[C@H]8O)[C@H]7O[C@@H]7O[C@H](CO)[C@H](O)[C@H](O[C@@H]8O[C@H](CO)[C@@H](O)[C@H](O)[C@H]8O)[C@H]7O)[C@H](O)[C@H]6O)[C@H](O)C[C@]5(C)[C@H]4CC[C@]3(C)[C@H]1[C@@H]2C (some centres undefined) ... > 6e+06
C[C@@H]1O[C@@H](O[C@H]2C[C@@H](O)[C@]3(CO)[C@H]4[C@H](O)C[C@]5(C)[C@@H](C6=CC(=O)OC6)CC[C@]5(O)[C@@H]4CC[C@]3(O)C2)[C@H](O)[C@H](O)[C@H]1O ... > 6e+06

Now for a further compound.
Ask | If you can, please state the reported Ratio IC50 value of C[C@H]1OC(O)C[C@H](O)[C@@H]1O (some centres undefined) .
Reply | > 1.2e+08
